# System: HT29 colon
# test: NCI tumour cell line growth inhibition, 48 h
Attribute: TGI
reported-property: TGI (µM)

molecule	reported-property	value-unit	modifier	readout-value
COC(=O)[C@]1(CCC(C)=O)C(=O)C=CN([C@H](C)c2ccccc2)[C@@H]1Cc1ccc(OC)c(OCc2ccccc2)c1I	TGI	µM	=	31.8
CCc1ccc2cc3c(ccc4ccccc43)c3c2c1CC3	TGI	µM	>	100
Nc1ncnc2c1ncn2C1SC(CO)C(O)C1O (centres undefined)	TGI	µM	=	42.4
COc1ccc(C2OC2C(=O)C23CC4CC(CC(C4)C2)C3)cc1 (centres undefined)	TGI	µM	>	100

###

# System: RXF 393 renal
# test: NCI tumour cell line growth inhibition, 48 h

compound	TGI
COC(=O)[C@@H](N1C(=O)c2ccccc2C1=O)C1(C)CC(Cl)=NO1 (some centres undefined)	> 100 µM
CNC(=S)N/N=C/CSC/C=N/NC(=S)NC	> 100 µM
Nc1ncnc2c1ncn2C1SC(CO)C(O)C1O (centres undefined)	> 100 µM
N#CC(C#N)=CNC(=S)Nc1ccc(S(=O)(=O)Nc2nccs2)cc1	> 100 µM
CC1(C)CC[C@]2(C(=O)O)CC[C@]3(C)C(=CC[C@@H]4[C@@]5(C)C/C(=C/c6cccnc6)[C@H](O)C(C)(C)[C@@H]5CC[C@]43C)[C@@H]2C1	36.6 µM
COc1cc(/C=C(\C#N)C(=O)c2ccccc2)cc(OC)c1OC	96.8 µM
COc1nc2c(c(=O)[nH]1)N=C(c1ccc([N+](=O)[O-])cc1)CC(c1ccccc1)N2 (centres undefined)	> 100 µM
O=[N+]([O-])c1ccc(-c2ccc([C@H]3CC(c4cc(F)c(Cl)cc4Cl)=NN3)o2)cc1	> 100 µM
CS(=O)(=O)Sc1ccc(Cl)cc1	20.8 µM

Source: PubChem BioAssay (NCI)
